experiment: ATP-based viability of Huh7 replicon cells – cell-based, CellTiter-Glo luminescence, basal, 48 h, cytotoxicity control for HCV replication inhibitor project, primary screen (AID 1143); details: Huh7 HCV replicon, CellTiter-Glo luminescence, 48 h, higher = more signal, called active from +8 up or from −8 down unless noted;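 also: Huh7 hepatoma cells carrying a hepatitis C replication reporter with no stimulus; test concentration not given here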
Output 1 (yes) for z-score not less than -1; output 0 (no) otherwise.

Consider the worked cases shown below.
COc1cc2c(cc1O)C(C)N(C)CC2 (stereo not drawn)
1 (yes)
CCCc1cc2c(n1Cc1ccc(C)cc1)C(C)C1CN(C(=O)c3ccccc3)C(C)(C(=O)OC)C21 (stereo not drawn)
0 (no)
COC(=O)[C@@]1(Cc2ccccc2)[C@H]2c3cc(C(=O)N(C)C)n(C)c3C[C@H]2CN1C(=O)c1ccccc1
1 (yes)
COC(=O)[C@@]1(Cc2ccccc2)[C@H]2c3cc(C(=O)N(C)C)[nH]c3C[C@H]2CN1C(=O)c1ccccc1
1 (yes)
COC(=O)[C@H]1[C@H](c2ccccc2)C(=O)[C@]2(O)c3ccccc3O[C@@]12c1ccccc1
1 (yes)

Please check the record O=P(c1ccccc1)(c1ccccc1)N1CC2(CC2)CC(O)(c2ccccc2)C1 (stereo not drawn) and state if its z-score is at or above -1.
0 (no)

Same lookup for COc1cc2c(cc1O)C=[N+](C)CC2 , please.
0 (no)

Same lookup for OCc1ccc(C2=CC(C3CC3)N(Cc3sc4ccccc4c3Cl)CC2)cc1 (stereo not drawn) , please.
0 (no)

Same lookup for CN1CCc2nc(CO)c(CO)cc2C1 , please.
1 (yes)

Same lookup for C[C@H]1O[C@H]2C3=C(C(=O)[C@@H]4O[C@@H]4[C@@H]3O)[C@@H]1[C@@H]1[C@@H](C)OC=C3[C@@H](O)[C@H]4O[C@H]4C(=O)[C@]312 , please.
0 (no)

Same lookup for C=C(CC1(C(C)NP(=O)(c2ccccc2)c2ccccc2)CC1)c1ccccc1 (stereo not drawn) , please.
0 (no)

Same lookup for COC(=O)C1(C)C=C2C(=C(C)C(=O)C2C)CN1 (stereo not drawn) , please.
1 (yes)

Same lookup for CCCc1cc2c(n1Cc1ccco1)C(C)C1CN(C(=O)c3ccccc3)C(C)(C(=O)OC)C21 (stereo not drawn) , please.
0 (no)

Same lookup for CN1CCC(c2ccc(CO)cc2)=CC1C1CC1 (stereo not drawn) , please.
1 (yes)

Same lookup for CCOC(=O)[C@H]1CC=C2C(=O)Oc3ccccc3[C@@H]21 , please.
0 (no)

Same lookup for c1ccc(-c2cc3c(nc2-c2ccccc2)CCNC3)cc1 , please.
1 (yes)

Same lookup for CN1CCC(c2ccc(CO)cc2)=CC1c1cccs1 (stereo not drawn) , please.
0 (no)

###

test: compound effects on multiple myeloma cell viability – MM1S, calcein-AM fluorescence, 48 h, basal, profiling panel (AID 1165); conditions: higher = more signal; also: test concentration not given here
Output Condition met for z-score not less than -1; output Condition not met otherwise.

COC(=O)[C@@]1(Cc2ccc(F)cc2)[C@H]2c3cc(C(=O)N(C)C)[nH]c3C[C@H]2CN1C(=O)c1ccccc1
Condition met
C=C(CC1(C(C)NP(=O)(c2ccccc2)c2ccccc2)CC1)c1ccccc1 (centres undefined)
Condition not met
COc1cc2c(cc1O)C(C)N(C)CC2 (centres undefined)
Condition met
CCCc1cc2c(n1Cc1ccco1)C(C)C1CN(C(=O)c3ccccc3)C(C)(C(=O)OC)C21 (centres undefined)
Condition not met
CCOC(=O)[C@H]1CC=C2C(=O)Oc3ccc(Br)cc3[C@@H]21
Condition not met

Please check the record C[C@@H]1OC=C2[C@@H](O)[C@H]3O[C@H]3C(=O)[C@]23[C@H]1[C@H]1C2=C([C@@H](O)[C@H]4O[C@H]4C2=O)[C@@H]3O[C@@H]1C and state if its z-score is at or above -1.
Condition met

Same lookup for COC(=O)NCC=Cc1nc(CCC=CC(=O)O[C@H]2CC3CC(=O)O[C@@H](C=CCC(C)C)C[C@@H]4CC[C@H](C)[C@@H](C[C@@H](OC)C[C@H](C2)O3)O4)co1 , please.
Condition not met

Same lookup for CCCc1cc2c(n1CCO)C(C)C1CN(C(=O)c3ccccc3)C(C)(C(=O)OC)C21 (centres undefined) , please.
Condition not met

###

assay: JC-1 mitochondrial signal, unstimulated myeloma cells – cell-based, JC-1 fluorescence, RPMI8226, 24 h, 100 nL compound, profiling panel (AID 1169); conditions: higher = more signal; RPMI8226 myeloma, JC-1 mitochondrial potential fluorescence, 24 h unless noted; also: test concentration not given here
observed property: z-score
Write the value as a bare number.

Previously resolved entries follow.
COC(=O)[C@@]1(Cc2ccccc2)[C@H]2c3cc(C(=O)N(C)C)n(C)c3C[C@H]2CN1C(=O)c1ccccc1
-0.318
CCCc1cc2c(n1Cc1ccc(C)cc1)C(C)C1CN(C(=O)c3ccccc3)C(C)(C(=O)OC)C21 (stereo unspecified)
0.00271
CCOC(=O)[C@H]1CC=C2C(=O)Oc3ccc(Br)cc3[C@@H]21
0.407
OCc1ccc(C2=CC(c3cccs3)N(Cc3cccc(OC(F)(F)F)c3)CC2)cc1 (stereo unspecified)
-0.0311
CN1CCc2nc(CO)c(CO)cc2C1
0.38
COC(=O)[C@H]1C(=O)c2ccccc2O[C@@](C(=O)OC)(c2ccccc2)[C@@H]1c1ccccc1
-0.203
C[C@@H]1OC=C2[C@@H](O)[C@H]3O[C@H]3C(=O)[C@]23[C@H]1[C@H]1C2=C([C@@H](O)[C@H]4O[C@H]4C2=O)[C@@H]3O[C@@H]1C
0.0604
COC(=O)[C@H]1[C@@H](O)[C@@]2(O)c3c(OC)cc(OC)cc3O[C@@]2(c2ccc(OC)cc2)[C@@H]1c1ccccc1
-0.727
C[C@@H]1Cc2c(cnc3c2CN(C)CC3)CO1
-0.258
COc1cc2c(cc1O)C=[N+](C)CC2
-0.0385

Sample CN1CCC(c2ccc(CO)cc2)=CC1C1CC1 (stereo unspecified) — what was its z-score?
0.604

Same lookup for CN1CCC(c2ccc(CO)cc2)=CC1c1cccs1 (stereo unspecified) , please.
0.554

Same lookup for CCCc1cc2c(n1Cc1cccc(Cl)c1)C(C)C1CN(C(=O)c3ccccc3)C(C)(C(=O)OC)C21 (stereo unspecified) , please.
-0.795

Same lookup for CCCC=C(CCC)[C@@H](NP(=O)(c1ccccc1)c1ccccc1)c1ccccc1 , please.
0.368

Same lookup for COc1cc2c(cc1O)C(C)N(C)CC2 (stereo unspecified) , please.
-0.663

Same lookup for COC(=O)[C@H]1[C@H](c2ccccc2)C(=O)[C@]2(O)c3ccccc3O[C@@]12c1ccccc1 , please.
0.289

###

experiment: plasmodial surface anion channel blockers, osmotic lysis – cell-based, P. falciparum Indochina, OD700, 2 h, primary screen (AID 1155);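 also: lysis reports solute entry through the parasite surface anion channel PSAC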; conditions: P. falciparum Indochina infected erythrocytes; higher = more signal, called active from +8 up or from −8 down unless noted
Activity calls are given as the source filed them.
Reported z-score values for the following compounds.

Previously resolved entries follow.
COc1cc2c(cc1O)C=[N+](C)CC2
-0.687 (inactive)
OCc1ccc(C2=CC(C3CC3)N(Cc3sc4ccccc4c3Cl)CC2)cc1 (stereo not given)
2.7 (inactive)
COC(=O)C1(C)C=C2C(=C(C)C(=O)C2C)CN1 (stereo not given)
0.405 (inactive)
O=P(c1ccccc1)(c1ccccc1)N1CC2(CC2)CC(O)(c2ccccc2)C1 (stereo not given)
0.585 (inactive)
CCCc1cc2c(n1Cc1ccc(C)cc1)C(C)C1CN(C(=O)c3ccccc3)C(C)(C(=O)OC)C21 (stereo not given)
-0.732 (inactive)
COC(=O)[C@H]1[C@H](c2ccccc2)C(=O)[C@]2(O)c3ccccc3O[C@@]12c1ccccc1
-0.657 (inactive)
COC(=O)[C@@]1(Cc2ccc(F)cc2)[C@H]2c3cc(C(=O)N(C)C)[nH]c3C[C@H]2CN1C(=O)c1ccccc1
0.0978 [setting not given] (inactive)
CCCC=C(CCC)[C@@H](NP(=O)(c1ccccc1)c1ccccc1)c1ccccc1
0.584 (inactive)
C=C(CC1(CNP(=O)(c2ccccc2)c2ccccc2)CC1)c1ccccc1
0.453 (inactive)

Below: the item to evaluate.
Sample CN1CCc2nc(CO)c(CO)cc2C1 — what was its z-score?
0.538 (inactive)

###

test system: glycogen synthase kinase-3 (GSK3A per assay name; protocol says GSK3B); test: compounds binding glycogen synthase kinase-3 – biochemical, small-molecule microarray, 635 nm fluorescence, GSK3A, primary screen (AID 1103); conditions: fluorescence 635 nm, higher = more signal; also: the record names both GSK3A and GSK3B
Reported composite z-score values for the following compounds.
Write the value as a bare number.

Previously resolved entries follow.
C[C@@H]1Cc2c(cnc3c2CN(C)CC3)CO1
-0.117
CCCC=C(CCC)[C@@H](NP(=O)(c1ccccc1)c1ccccc1)c1ccccc1
0.79
CCCc1cc2c(n1Cc1ccc(C)cc1)C(C)C1CN(C(=O)c3ccccc3)C(C)(C(=O)OC)C21 (centres undefined)
0.0952

Sample c1ccc(-c2cc3c(nc2-c2ccccc2)CCNC3)cc1 — what was its composite z-score?
-0.598

Same lookup for C=C(CC1(C(C)NP(=O)(c2ccccc2)c2ccccc2)CC1)c1ccccc1 (centres undefined) , please.
0.0363

Same lookup for O=P(c1ccccc1)(c1ccccc1)N1CC2(CC2)CC(O)(c2ccccc2)C1 (centres undefined) , please.
-0.487

Same lookup for OCc1ccc(C2=CC(c3cccs3)N(Cc3cccc(OC(F)(F)F)c3)CC2)cc1 (centres undefined) , please.
-0.123

Same lookup for C[C@H]1O[C@H]2C3=C(C(=O)[C@@H]4O[C@@H]4[C@@H]3O)[C@@H]1[C@@H]1[C@@H](C)OC=C3[C@@H](O)[C@H]4O[C@H]4C(=O)[C@]312 , please.
-0.572

Same lookup for CCOC(=O)[C@H]1CC=C2C(=O)Oc3ccccc3[C@@H]21 , please.
-0.45
